These entries and their values trace back to PubChem BioAssay (NCI).

I'd be grateful if you could share measured TGI for these entries.
test system: HOP-62 NSCLC; test: NCI tumour cell line growth inhibition, 48 h

C[CH2][Sn]1([CH2]C)[O]C(=O)[O][Sn]([CH2]C)([CH2]C)[O]1; > 68.2 µM
Cc1cc2c(CC(=O)O)[nH]nc2c(C(=O)O)c1C; > 100 µM
CCOc1ccccc1NC(=O)/C=C1\NC(=O)CS1; > 100 µM
COc1ccc2c(c1)CCc1c-2n(CCN(C)C)c2ccc(OC)cc12; 43.1 µM
O=C(O)C1CCc2ccc3ccccc3c2C1c1cccc2ccccc12 (stereo unspecified); 35.9 µM
COc1ccc(-c2c(C3=NCCN3)nnn2-c2ccccc2)cc1; > 100 µM
O=C(Nc1cccc(-c2cn3ccccc3n2)c1)c1ccncc1; > 100 µM
O=C(Nc1ccccc1)c1ccc(Cl)c([N+](=O)[O-])c1; > 100 µM
N#CC1=CNc2sccc2S1(=O)=O; > 100 µM
c1ccc2c(c1)[I+]c1ccccc1-2; > 50 µM

Provide the reported TGI of each entry below, same order.
1. CCN(CC)CCNc1c(OC)cc(C)c2sc3ccccc3c(=O)c12
2. CCOC(=O)C1=C(C)NC(=S)NC1c1cccc(O)c1 (stereo unspecified)
3. CC(=O)NC1=N/C(=C/c2cc([N+](=O)[O-])ccc2O)CN1C
4. COC1=CC23C=CC1[C@@H](c1ccccc1)C2=C(C)C(=O)N3C(=O)NC1CCCCC1 (stereo partly specified)
5. O=c1cc(-c2ccccc2)[nH]c2cccc(S)c12
6. CCCCCCCCCCCCCCCCCCOCC(O)COP(=O)(O)OCC1OC(n2cc(F)c(=O)[nH]c2=O)CC1O (stereo unspecified)

*A*
["25 µM", "> 100 µM", "> 100 µM", "50.2 µM", "> 100 µM", "4.88 µM"]

* * *

tested on: SK-MEL-28 melanoma; assay: NCI tumour cell line growth inhibition, 48 h
I'd be grateful if you could share measured TGI for these entries.

Example entries and their recorded answers appear below.
COc1cc(OC2OC(C)C(O)C(O)C2O)cc2oc(-c3ccc(O)cc3)c(CC=C(C)C)c(=O)c12 (stereo not given); 59.6 µM
CC(C)n1c(=O)n(-c2ccccc2)n(C(C)(C)C)c1=O; > 100 µM
O=C1C=C(c2c(O)ccc3ccccc23)c2ccccc2C1=O; > 50 µM
CCOc1ccccc1NC(=O)/C=C1\NC(=O)CS1; > 100 µM
CC(=O)O[C@H]1C(N(C)C(=O)c2ccccc2)CC[C@]2(C)C3CC[C@@]4(C)C(CC(O)[C@@H]4C(C)N(C)C)[C@@H]3CCC12 (stereo not given in full); > 100 µM

Provide the reported TGI of each entry below, same order.
1. CCCCCCCCCCCCCCCCCCOCC(O)COP(=O)(O)OCC1OC(n2cc(F)c(=O)[nH]c2=O)CC1O (stereo not given)
2. O=c1[nH]nc(Cc2ccc(Cl)cc2)n1O
3. CN1CCN(CCSC2Cc3cc(Cl)ccc3Sc3ccccc32)CC1 (stereo not given)
4. Nc1c(C(=O)c2ccccc2)sc2nc(-c3cccs3)ccc12
5. COc1ccc2c(c1)C(=O)CC(N)C2 (stereo not given)

*A*
["28.8 µM", "> 100 µM", "3.5 µM", "> 100 µM", "> 100 µM"]

* * *

test system: SK-MEL-5 melanoma; experiment: NCI tumour cell line growth inhibition, 48 h
*1 amine or outer side, *2 acyl side, *3 side chain or, on linkers, in order; H or OH if unused. Where a SMILES comes first, the peptide text is derived from it. Bridges are numbered along the chain shown (N, C = ends). [ ]: non-standard residue; d: D form. ξ: configuration not given here. X4 = CCC(C)C(N[*:1])C(O)CC(=O)O[C@H](C(=O)C(C)C(=O)[*:2])C(C)C; NMeY = CN[C@@H](Cc1ccc(O)cc1)C(=O)O; ξNMeL = CNC(CC(C)C)C(=O)O; ξT = CC(O)C(N)C(=O)O
property-name: TGI (µM)
Give bare numbers, in µM.

Example entries and their recorded answers appear below.
COc1ccc(CNc2nc(NCc3ccc(OC)cc3)nc(N3CCOCC3)n2)cc1; 24.4
CCCCCCCCCCCCCCCCCCOCC(O)COP(=O)(O)OCC1OC(n2cc(F)c(=O)[nH]c2=O)CC1O (centres undefined); 24.1
CCC(C)C1NC(=O)C(NC(=O)C(CC(C)C)N(C)C(=O)[C@@H]2CCCN2)C(C)OC(=O)[C@H](Cc2ccc(OC)cc2)N(C)C(=O)[C@@H]2CCCN2C(=O)[C@H](CC(C)C)NC(=O)C(C)C(=O)[C@H](C(C)C)OC(=O)CC1O (some centres undefined) (H-P[ξNMeL][ξT][X4]LP[NMeY](Me); ester 3-C); 0.00748

API: the following record is the query input.
*Q* Returns the measured TGI for the input molecule. Input: COc1cc2c(cc1OCc1ccccc1)N=C[C@@H]1C/C(=C/C(=O)NCCCN3C(=O)c4cccc5cccc(c45)C3=O)CN1C2=O
*A* 3.33

* * *

system: SR leukemia; assay: NCI tumour cell line growth inhibition, 48 h
property-name: TGI

Provide the reported TGI of each entry below, same order.
1. CC1(C)C(=O)N(c2ccccc2)C(=O)N1c1nc2ccccc2[nH]1
2. Cc1cc2c(CC(=O)O)[nH]nc2c(C(=O)O)c1C

*A*
> 100 µM
> 100 µM

Provide the reported TGI of each entry below, same order.
1. Cc1cc(S(=O)(=O)Nc2nc(N)nc(N3N=CCC3C)n2)c(S)cc1Cl (stereo not given)
2. COc1ccc2c(c1)C(=O)CC(N)C2 (stereo not given)
3. O=[N+]([O-])c1ccc2[nH]cc(-c3c4ccsc4cc4[nH]c5ccc([N+](=O)[O-])cc5c34)c2c1

*A*
1: > 10 µM; 2: > 100 µM; 3: 33.3 µM

* * *

system: SK-OV-3 ovarian; assay: NCI tumour cell line growth inhibition, 48 h
property-name: TGI

CCOc1ccc(/C=C/C(=O)c2ccccc2)cc1; 56 µM

Provide the reported TGI of each entry below, same order.
1. CC1(C)C(=O)N(c2ccccc2)C(=O)N1c1nc2ccccc2[nH]1
2. OCCN=C1Nc2ccc(Cl)cc2C(=S)N2CSC[C@@H]12
3. CC(C)c1ccc(Cc2cnc(NC(=O)c3cc(Br)cs3)s2)cc1
4. COc1cc(C2c3cc4c(cc3[C@@H](Nc3ccc(C(=O)O)cc3)C3COC(=O)[C@H]23)OCO4)cc(OC)c1O (some centres undefined)
5. O=c1oc2ccccc2c(O)c1/C=N\c1nc(-c2ccccc2)cs1
6. N#Cc1c2c(c(N3CCOCC3)n3c1nc1ccccc13)CCCC2
7. O=C(c1ccco1)N(C(=S)OCc1ccccn1)c1ccccc1
8. O=C(NNC(=S)Nc1ccccc1)c1csc(NC(=S)NC2CCCCC2)n1

*A*
1: > 100 µM; 2: > 100 µM; 3: 95.7 µM; 4: > 100 µM; 5: > 100 µM; 6: 67.7 µM; 7: > 100 µM; 8: > 100 µM

Provide the reported TGI of each entry below, same order.
1. CCOC(=O)C(O)(NC(C)=O)C(F)(F)F (centres undefined)
2. O=C(Nc1cccc(-c2cn3ccccc3n2)c1)c1ccncc1
3. CCOC(=O)C(Cc1ccccc1)(Cc1ccc(O)cn1)NC(=O)c1ccccc1 (centres undefined)
4. Nc1c(C(=O)c2ccccc2)sc2nc(-c3cccs3)ccc12
5. COc1cc(OC)c(/C=C/c2ccc3ccccc3[n+]2C)c(OC)c1

*A*
["> 100 µM", "> 100 µM", "> 100 µM", "18.4 µM", "26 µM"]

Provide the reported TGI of each entry below, same order.
1. NC(=O)c1c[se]c(C2OC(CO)C(O)C2O)n1 (centres undefined)
2. COc1cc(C2C3=C(COC3=O)OC(C)(C)Oc3cc4c(cc32)OCO4)cc(OC)c1OC (centres undefined)
3. COc1ccc(OC)c2cc(Cc3ccc(N(C)C)cc3)c(=O)c(Cc3ccc(N(C)C)cc3)cc12
4. O=C1C=C(c2c(O)ccc3ccccc23)c2ccccc2C1=O
5. NC(=O)COc1ccccc1

*A*
> 100 µM
> 100 µM
> 100 µM
23.9 µM
> 100 µM

* * *

I'd be grateful if you could share measured GI50 for these entries.
tested on: PC-3 prostate; experiment: NCI tumour cell line growth inhibition, 48 h

Provide the reported GI50 of each entry below, same order.
1. CC[N+](CC)=c1ccc2nc3c(cc(N)c4ccccc43)oc-2c1
2. Clc1nc(Oc2ccccc2)nc(-c2cn(-c3ccccc3)c3ccccc23)n1
3. CC1=CC[C@@H]2CC[C@]3(C)[C@H](CC[C@@H]4[C@@]5(C)CCCNC(C)(C)[C@@H]5CC[C@]43C)[C@H]2[C@@H]1C
4. Oc1ccc(Br)cc1Sc1cc(Br)ccc1O
5. CCCCCCC/C=C/[C@H]1O[C@]23C(=O)C[C@@]4(C[C@@H](OC5OC(CO)C(O)C(O)C5O)C[C@@H]4[C@H]2C=C1C)OC3=O (stereo partly specified)

*A*
0.567 µM
5.03 µM
1.58 µM
10.6 µM
3.81 µM
